System: Mycobacterium tuberculosis
Assay: Inhibition of Mycobacterium tuberculosis chorismate mutase expressed in Escherichia coli BL21 (DE3) assessed as conversion of chorismate to prephenate at 50 uM after 5 mins
Everything with inhibition lower than 40% is f; everything else, including exactly 40%, is t.

Below are worked cases with known answers.
>>> labelclass("COc1ccc(NS(C)(=O)=O)c(-c2cc3cc(OC)ccc3n2S(C)(=O)=O)c1")
"t"
>>> labelclass("CS(=O)(=O)Nc1ccc([N+](=O)[O-])cc1-c1cc2cc([N+](=O)[O-])ccc2n1S(C)(=O)=O")
"f"

Query: Assess whether reported inhibition for `Cc1ccc(S(=O)(=O)Nc2ccc(C(F)(F)F)cc2-c2cc3cc(C(F)(F)F)ccc3n2S(=O)(=O)c2ccc(C)cc2)cc1` sits at 40% or higher.
Response: f

----------
Test system: Mycobacterium tuberculosis
Experiment: Inhibition of Mycobacterium tuberculosis chorismate mutase expressed in Escherichia coli BL21 (DE3) assessed as conversion of chorismate to prephenate at 50 uM after 5 mins
Everything with inhibition lower than 20% is no; everything else, including exactly 20%, is yes.

Query: Assess whether reported inhibition for `Cc1ccc(NS(C)(=O)=O)c(-c2cc3cc(C)ccc3n2S(C)(=O)=O)c1` sits at 20% or higher.
Response: yes

Query: Assess whether reported inhibition for `Cc1ccc(S(=O)(=O)Nc2ccccc2-c2cc3ccccc3n2S(=O)(=O)c2ccc(C)cc2)cc1` sits at 20% or higher.
Response: no

Query: Assess whether reported inhibition for `CS(=O)(=O)Nc1ccc(C(F)(F)F)cc1-c1cc2cc(C(F)(F)F)ccc2n1S(C)(=O)=O` sits at 20% or higher.
Response: yes

Query: Assess whether reported inhibition for `Cc1ccc(S(=O)(=O)Nc2ccc(C)cc2-c2cc3cc(C)ccc3n2S(=O)(=O)c2ccc(C)cc2)cc1` sits at 20% or higher.
Response: no

Query: Assess whether reported inhibition for `CS(=O)(=O)Nc1ccc(F)cc1-c1cc2cc(F)ccc2n1S(C)(=O)=O` sits at 20% or higher.
Response: yes

Query: Assess whether reported inhibition for `CS(=O)(=O)Nc1ccc(Cl)cc1-c1cc2cc(Cl)ccc2n1S(C)(=O)=O` sits at 20% or higher.
Response: yes

----------
The compounds listed here are annotated with their inhibition.
Tested on: Mycobacterium tuberculosis
Experiment: Inhibition of Mycobacterium tuberculosis chorismate mutase expressed in Escherichia coli BL21 (DE3) assessed as conversion of chorismate to prephenate at 50 uM after 5 mins
State the answer as a number, implicitly in %.

>>> reading("CS(=O)(=O)Nc1ccc(C#N)cc1-c1cc2cc(C#N)ccc2n1S(C)(=O)=O")
20
>>> reading("Cc1ccc(S(=O)(=O)Nc2ccc(Cl)cc2-c2cc3cc(Cl)ccc3n2S(=O)(=O)c2ccc(C)cc2)cc1")
10
>>> reading("CS(=O)(=O)Nc1ccccc1-c1cc2ccccc2n1S(C)(=O)=O")
40
>>> reading("CC(=O)c1ccc(NS(C)(=O)=O)c(-c2cc3cc(C(C)=O)ccc3n2S(C)(=O)=O)c1")
30

We next turn to a different compound, shown below.
Note to self: inhibition recorded for `Cc1ccc(S(=O)(=O)Nc2ccc(F)cc2-c2cc3cc(F)ccc3n2S(=O)(=O)c2ccc(C)cc2)cc1` was 15
